src = PubChem BioAssay AID1851

# test_target: Cytochrome P450 2C19 (Homo sapiens)
# test_protocol: Cytochrome panel assay with activity outcomes
# run_conditions: recombinant CYP, pro-luciferin dealkylation, luminescence, p450-cyp2c19; series mostly up to 57.1 µM
Among all 16,000 compounds or so, about 5,800 (36%) were called active. Inconclusive results (about 23%) are left out. Calls come from the whole dose curve; as a rule, active = well fitted curve in the direction sought with a large enough effect; inconclusive = small, poorly fitted or top-dose-only effect, or effect the other way; inactive = no such curve, though single readings can be large or run the other way. The list shows a part of the results.
Labels: true = active, false = inactive

• C#C[C@H](N)CCC(=O)O = false
• Cc1ccccc1NC(=O)/C(=C/c1ccccc1)c1ccccc1 = true
• Nc1cc(Cl)ccc1Oc1ccc(Cl)cc1 = true
• N#C/C(=C\c1cc([N+](=O)[O-])c(N2CCCCC2)cc1N1CCCCC1)c1nn(-c2ccccc2)c(N)c1C#N = true
• O=C(O)[C@@H]1[C@@H]2C[C@H]3c4[nH]c5ccccc5c4CCN3C[C@@H]2CC[C@@H]1O = false
• CNc1cc(CSC)nc(SCc2ccc(Cl)c(Cl)c2)n1 = true
• Cc1cccc(OCCn2c(S(=O)(=O)O)nc3ccccc32)c1 = false
• CCCN1CCC(=NNC(=O)c2ccc(Br)o2)CC1 = true
• CN(C)CCC=C1c2ccccc2C=Cc2ccccc21 = false
• N.N.O=C(O)C1(C(=O)O)CCC1.[Pt] = true
• CN1CC[C@@]2(CCCN(C(=O)c3cccn3C)C2)C1 = false
• CN(c1ccc(C(=O)NCC2CCCO2)cc1)S(=O)(=O)c1ccccc1 (centres undefined) = false
• O=C1c2ccccc2NC(c2ccc(Cl)cc2Cl)N1O (centres undefined) = true
• COC(=O)C1=C(C)NC(C)=C([N+](=O)[O-])[C@H]1c1ccccc1C(F)(F)F = true
• CC(C)NC(=O)N1CC[C@@]2(CCCN(C(=O)c3cccn3C)C2)C1 = false
• O=C1c2ccccc2NC(c2ccc3c(c2)OCO3)N1O (centres undefined) = true
• CCC1C(=O)N=C(SCC(=O)Nc2ccc(C(=O)OC)cc2)NC1=O (centres undefined) = true
• O=C(Cc1ccccc1)NCCSCc1ccc(Cl)cc1 = true
• COc1ccc(NC(=O)N2CCCC3(CCN(C(=O)c4cccn4C)CC3)C2)cc1 = false
• CCNc1ncc2nc(-c3ccccc3)c(=O)n(Cc3cccs3)c2n1 = false
• C/C(=N\NC(=O)CC1N=C(Cc2ccccc2)NNC1=O)c1ccc(Cl)cc1Cl (centres undefined) = true
• C[C@@H](C(=O)Nc1ccc2ccccc2c1)[C@H]1C[C@]1(C)[C@H](NS(=O)(=O)c1ccc(-c2ccccc2)cc1)c1ccccc1 = false
• S=C(NCCSCc1c(Cl)cccc1Cl)Nc1ccccc1 = true
• C[C@@H](C(=O)Nc1ccc2ccccc2c1)[C@@H]1C[C@@]1(C)[C@@H](NC(=O)Oc1ccc(F)cc1)c1ccccc1 = false
• Cn1cccc1C(=O)N1CCC2(CC1)CN(Cc1ccc(C#N)cc1)C2 = false
• S=C(NCCSCc1ccc(Cl)cc1Cl)Nc1ccccc1 = true
• CC1CCN(c2cc(N3CCC(C)CC3)c([N+](=O)[O-])cc2/C=C(\C#N)c2nn(-c3ccccc3)c(N)c2C#N)CC1 = true
• O=C(O)C1=CCCNC1 = false
• C=CCc1cccc(C2Nc3ccccc3C(=O)N2O)c1O (centres undefined) = true
• CCNc1ncc2nc(-c3ccc(F)cc3)c(=O)n(C[C@H]3CCCO3)c2n1 = false
• CN1[C@@H]2CC[C@H]1CC(OC(c1ccccc1)c1ccccc1)C2 (some centres undefined) = false
• Cc1cccc(OCCn2c(-c3ccco3)nc3ccccc32)c1 = true
• O=S(=O)(c1ccccc1)N1CCC2(CCCN(c3cccc(-c4ccccc4)c3)C2)CC1 = false
• CSc1nc(NC2CCCC2)c([N+](=O)[O-])c(NC2CCCC2)n1 = true
• CC(NC(=O)OCc1ccccc1)C(=O)NCC1CCCO1 (centres undefined) = false
• CC(=O)NN1C(=O)c2ccc(Oc3cccc([N+](=O)[O-])c3)cc2C1=O = true
• CCOC(=O)c1ccc(NC(=O)CC2NCCNC2=O)cc1 (centres undefined) = false
• CC(=O)NN1C(=O)c2ccc(Oc3ccc([N+](=O)[O-])cc3)cc2C1=O = false
• CCS(=O)(=O)c1ccc2oc(Nc3cc(C)cc(C)c3)nc2c1 = true
• O=C(CNC(=O)c1ccco1)OCc1c(F)cccc1Cl = true
• COc1ccc(/C=C(/C(=O)Nc2ccccc2C(=O)NC(C)C)c2ccccc2)cc1 = true
• COc1ccc(C(=O)c2cnc3ccccc3c2-c2ccccc2)cc1 = true
• O=S(=O)(c1ccccc1)N1CCC2(CCCN(c3ccccc3)C2)CC1 = true
• COC(=O)C1=C(C)NC(C)=C([N+](=O)[O-])[C@@H]1c1ccccc1C(F)(F)F = true
